Tested on: NOMO1
Experiment: cell viability relative to DMSO control; higher = less cytotoxic
Conditions: HPLM + 10% dialyzed FBS; 48 h; 0.00234 µM
Readout kind: cell viability (%)

>  <Compound>
CN(C)[C@@H](CCOc1cccc2ccccc12)c1ccccc1

>  <Recorded result>
117

$$$$
>  <Compound>
CC[C@H]1CN2CCc3cc(OC)c(OC)cc3[C@@H]2C[C@@H]1C[C@H]1NCCc2cc(OC)c(OC)cc21

>  <Recorded result>
105

$$$$
>  <Compound>
Nc1nc(N)c(N=O)c(OCC2CCCCC2)n1

>  <Recorded result>
104

$$$$
>  <Compound>
CC(C)[N+]1(C)C2CCC1CC(OC(=O)C(CO)c1ccccc1)C2.O.[Br-] (centres undefined)

>  <Recorded result>
118

$$$$
>  <Compound>
CS[C@H]1SC[C@@H]2C(=O)N(C)[C@H](C(C)C)C(=O)OC[C@H](NC(=O)c3cnc4ccccc4n3)C(=O)N[C@H](C)C(=O)N(C)[C@H]1C(=O)N(C)[C@H](C(C)C)C(=O)OC[C@H](NC(=O)c1cnc3ccccc3n1)C(=O)N[C@H](C)C(=O)N2C

>  <Recorded result>
92.4

$$$$
>  <Compound>
Nc1ccc([S+](=O)([O-])Nc2ncccn2)cc1

>  <Recorded result>
121

$$$$
>  <Compound>
O=C(NCc1ccccc1)c1csc(Nc2ccncn2)n1

>  <Recorded result>
95.2

$$$$
>  <Compound>
COC(=O)[C@H](c1ccccc1Cl)N1CCc2sccc2C1

>  <Recorded result>
110

$$$$
>  <Compound>
OCCN(CCO)c1nc(N2CCCCC2)c2nc(N(CCO)CCO)nc(N3CCCCC3)c2n1

>  <Recorded result>
112

$$$$
>  <Compound>
N[C@@H](Cc1ccc(O)c(O)c1)C(=O)O

>  <Recorded result>
133

$$$$
>  <Compound>
NC[C@H]1O[C@H](O[C@H]2[C@H](O)[C@@H](O[C@H]3O[C@H](CO)[C@@H](O)[C@H](N)[C@H]3O)[C@H](N)C[C@@H]2N)[C@H](N)C[C@@H]1O

>  <Recorded result>
99.1

$$$$
>  <Compound>
CC(C)Cn1cnc2c(N)nc3ccccc3c21

>  <Recorded result>
124

$$$$
>  <Compound>
CCOC(=O)O[C@]1(C(=O)OCCl)CC[C@H]2[C@@H]3CCC4=CC(=O)C=C[C@]4(C)[C@H]3[C@@H](O)C[C@@]21C

>  <Recorded result>
95.9

$$$$
>  <Compound>
Cn1cnc([N+](=O)[O-])c1Sc1ncnc2nc[nH]c12

>  <Recorded result>
79.6

$$$$
>  <Compound>
Cc1c(C(=O)c2cccc3ccccc23)c2cccc3c2n1[C@H](CN1CCOCC1)CO3

>  <Recorded result>
100

$$$$
>  <Compound>
CCCCCCCCCCCC/1=C(O)/C(=O)/C=C(O)\C1=O

>  <Recorded result>
116

$$$$
>  <Compound>
C[N+]1(C)[C@@H]2CC(OC(=O)C(O)(c3cccs3)c3cccs3)C[C@H]1[C@@H]1O[C@@H]12 (some centres undefined)

>  <Recorded result>
113

$$$$
>  <Compound>
CN1CCN(CCCN2c3ccccc3Sc3ccc(Cl)cc32)CC1.O=C(O)/C=C\C(=O)O.O=C(O)/C=C\C(=O)O

>  <Recorded result>
123

$$$$
>  <Compound>
O=C1CCCC(=O)C1C(=O)c1ccc(C(F)(F)F)cc1[N+](=O)[O-]

>  <Recorded result>
110

$$$$
